// data source = patent US7473688B2

biological target: HCV NS5B (Hepatitis C virus genotype 1b, UniProt Q9WMX2); construct: The protein was expressed with an 18 amino acid C-terminal truncation to enhance the solubility; made in house; host or cells: E. coli BL21 (DE3), pET21a; test: HCV NS5B RdRp enzyme assay (preincubation protocol); format: biochemical; conditions: Table 1a, read-out: IC50*
Sequence (Q9WMX2 2420-2992): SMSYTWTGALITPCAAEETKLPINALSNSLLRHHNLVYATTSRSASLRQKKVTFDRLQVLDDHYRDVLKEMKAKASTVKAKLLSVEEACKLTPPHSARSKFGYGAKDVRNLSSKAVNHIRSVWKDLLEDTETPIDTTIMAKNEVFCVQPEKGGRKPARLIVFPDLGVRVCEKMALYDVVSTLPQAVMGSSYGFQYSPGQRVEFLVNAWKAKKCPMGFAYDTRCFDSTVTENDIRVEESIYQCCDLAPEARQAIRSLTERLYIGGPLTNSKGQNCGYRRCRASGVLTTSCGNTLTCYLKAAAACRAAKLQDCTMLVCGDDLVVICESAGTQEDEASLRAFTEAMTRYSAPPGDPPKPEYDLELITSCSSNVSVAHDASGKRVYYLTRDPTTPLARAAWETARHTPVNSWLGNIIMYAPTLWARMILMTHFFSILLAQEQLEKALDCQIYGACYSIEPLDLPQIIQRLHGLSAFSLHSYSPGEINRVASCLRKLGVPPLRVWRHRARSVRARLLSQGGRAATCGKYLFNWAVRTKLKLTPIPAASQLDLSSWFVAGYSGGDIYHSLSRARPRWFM
# IC50 listing for each entry below

CCN(C(C)=O)C1CCN(C(=O)NC2Cc3cc(OC)ccc3-c3c(C4CCCCC4)c4ccc(C(=O)NS(=O)(=O)N(C)C)cc4n3C2)C1 (centres unmarked)
10 to 1000 nM

Form field - read-out: IC50; system: HCV NS5B (Hepatitis C virus genotype 1b, UniProt Q9WMX2); submitted item: COc1ccc2c(c1)C=C(C(=O)N1CCC(Oc3ncccn3)CC1)Cn1c-2c(C2CCCCC2)c2ccc(C(=O)NS(=O)(=O)N(C)C)cc21
10 to 1000 nM

Similarly, COc1ccc2c(c1)C=C(C(=O)N(C)CC(=O)O)Cn1c-2c(C2CCCCC2)c2ccc(C(=O)O)cc21 ?
10 to 1000 nM

Similarly, O=C(NCc1nnn[nH]1)c1ccc2c(C3CCCCC3)c3n(c2c1)CC(C(=O)N1CCC(N2CCOCC2)CC1)=Cc1ccccc1-3 ?
10 to 1000 nM

Similarly, COc1ccc2c(c1)C=C(C(=O)N1CCN(C(=O)N3CCCC3)CC1)Cn1c-2c(C2CCCCC2)c2ccc(C(=O)NS(=O)(=O)N(C)C)cc21 ?
10 to 1000 nM

Similarly, COc1ccc2c(c1)CC(NC(=O)N1CCOC(CN3CCCC3)C1)Cn1c-2c(C2CCCCC2)c2ccc(C(=O)NS(=O)(=O)N(C)C)cc21 (centres unmarked) ?
10 to 1000 nM

Similarly, CN(C)S(=O)(=O)NC(=O)c1ccc2c(C3CCCCC3)c3n(c2c1)CC(NC(=O)C1CCOCC1)Cc1ccccc1-3 (centres unmarked) ?
10 to 1000 nM

Similarly, COc1ccc2c(c1)C=C(C(=O)N1CCC[C@H]1C(=O)N(C)C)Cn1c-2c(C2CCCCC2)c2ccc(C(=O)NS(=O)(=O)N(C)C)cc21 ?
10 to 1000 nM

Similarly, COc1ccc2c(c1)C=C(C(=O)N1CCC(C(=O)N(C)C)CC1)Cn1c-2c(C2CCCCC2)c2ccc(C(=O)NS(=O)(=O)N3CCN(C)CC3)cc21 ?
10 to 1000 nM

Similarly, COc1ccc2c(c1)CC(N(C)C(=O)C1CCOCC1)Cn1c-2c(C2CCCCC2)c2ccc(C(=O)O)cc21 (centres unmarked) ?
< 20 nM

Similarly, COc1ccc2c(c1)CC(NC(=O)N1CCN(CC(=O)NC(C)C)CC1)Cn1c-2c(C2CCCCC2)c2ccc(C(=O)NS(=O)(=O)N(C)C)cc21 (centres unmarked) ?
10 to 1000 nM

Similarly, O=C(NS(=O)(=O)N1CCOCC1)c1ccc2c(C3CCCCC3)c3n(c2c1)CC(C(=O)N1CCN(CC(F)(F)F)CC1)=Cc1ccccc1-3 ?
10 to 1000 nM

Similarly, COc1ccc2c(c1)C=C(C(=O)N1CCC(C(=O)N3CCOCC3)CC1)Cn1c-2c(C2CCCCC2)c2ccc(C(=O)NS(=O)(=O)N(C)C)cc21 ?
10 to 1000 nM

Similarly, COC1CCCC(C(=O)N(C)C2Cc3ccccc3-c3c(C4CCCCC4)c4ccc(C(=O)NS(=O)(=O)N(C)C)cc4n3C2)C1 (centres unmarked) ?
10 to 1000 nM

Similarly, CC(=O)NN(C)C(=O)C1Cc2ccccc2-c2c(C3CCCCC3)c3ccc(C(=O)NS(=O)(=O)N(C)C)cc3n2C1 (centres unmarked) ?
10 to 1000 nM

Similarly, COC1CCCC(C(=O)N(C)C2Cc3ccccc3-c3c(C4CCCCC4)c4ccc(C(=O)O)cc4n3C2)C1 (centres unmarked) ?
10 to 1000 nM

Similarly, COc1ccc2c(c1)CC(C(=O)N(C)C1CCOCC1)Cn1c-2c(C2CCCCC2)c2ccc(C(=O)O)cc21 (centres unmarked) ?
< 20 nM

Similarly, COc1ccc2c(c1)C=C(C(=O)N(C)CC(=O)N1CCC1)Cn1c-2c(C2CCCCC2)c2ccc(C(=O)NS(=O)(=O)N(C)C)cc21 ?
10 to 1000 nM

Similarly, CCN(CC)C(=O)CN(C)C(=O)C1=Cc2cc(OC)ccc2-c2c(C3CCCCC3)c3ccc(C(=O)NS(=O)(=O)N(C)C)cc3n2C1 ?
10 to 1000 nM

Similarly, COc1ccc2c(c1)C=C(C(=O)N(C)CC(=O)N1CCOCC1)Cn1c-2c(C2CCCCC2)c2ccc(C(=O)O)cc21 ?
10 to 1000 nM

Similarly, COc1ccc2c(c1)C=C(C(=O)N1CCOCC1)Cn1c-2c(C2CCCCC2)c2ccc(C(=O)NS(=O)(=O)N3CCOCC3)cc21 [drawing 237] ?
10 to 1000 nM

Similarly, O=C(NCc1ccccn1)c1ccc2c(C3CCCCC3)c3n(c2c1)CC(C(=O)N1CCC(N2CCOCC2)CC1)=Cc1ccccc1-3 ?
10 to 1000 nM

Similarly, COc1ccc2c(c1)C=C(C(=O)N1CCN(C(=O)CN)CC1)Cn1c-2c(C2CCCCC2)c2ccc(C(=O)NS(=O)(=O)N(C)C)cc21 ?
< 20 nM

Similarly, COc1ccc2c(c1)C=C(C(=O)N1CCN(C(C)=O)CC1)Cn1c-2c(C2CCCCC2)c2ccc(C(=O)NS(=O)(=O)N(C)C)cc21 ?
10 to 1000 nM

Similarly, COc1ccc2c(c1)CC(C(=O)N1CCN(C(=O)N(C)C)CC1)Cn1c-2c(C2CCCCC2)c2ccc(C(=O)NS(=O)(=O)N(C)C)cc21 (centres unmarked) ?
10 to 1000 nM

Similarly, COc1ccc2c(c1)C=C(C(=O)N1CCN(CC(F)(F)F)CC1)Cn1c-2c(C2CCCCC2)c2ccc(C(=O)NS(=O)(=O)N3CCOCC3)cc21 ?
10 to 1000 nM

Similarly, CCN(CC)C(=O)CN(C)C(=O)C1Cc2cc(OC)ccc2-c2c(C3CCCCC3)c3ccc(C(=O)NS(=O)(=O)N(C)C)cc3n2C1 (centres unmarked) ?
10 to 1000 nM

Similarly, COc1ccc2c(c1)C=C(C(=O)N1C[C@H](O)C[C@H]1C(=O)Nc1ccc3c(C)cc(=O)oc3c1)Cn1c-2c(C2CCCCC2)c2ccc(C(=O)NS(=O)(=O)N(C)C)cc21 ?
10 to 1000 nM

Similarly, COc1ccc2c(c1)CC(C(=O)N(C)CC1CCCO1)Cn1c-2c(C2CCCCC2)c2ccc(C(=O)NS(=O)(=O)N(C)C)cc21 (centres unmarked) ?
10 to 1000 nM
